All figures here come from patent US8815919B2.

# Measurement target: S1P3 (Homo sapiens)
# Sequence (Q99500 whole entry, species assumed): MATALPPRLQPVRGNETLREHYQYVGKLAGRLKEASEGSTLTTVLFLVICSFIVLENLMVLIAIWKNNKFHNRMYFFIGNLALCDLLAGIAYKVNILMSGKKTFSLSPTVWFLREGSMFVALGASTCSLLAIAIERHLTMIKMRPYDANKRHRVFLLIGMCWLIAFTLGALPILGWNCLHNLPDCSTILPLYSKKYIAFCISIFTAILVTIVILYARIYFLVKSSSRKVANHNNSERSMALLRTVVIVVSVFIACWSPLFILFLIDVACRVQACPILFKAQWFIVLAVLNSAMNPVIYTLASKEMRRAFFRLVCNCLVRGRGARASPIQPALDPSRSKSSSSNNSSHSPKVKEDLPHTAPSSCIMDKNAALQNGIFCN
# Assay notes: 35S-GTPγS binding on membranes of CHO cells expressing S1P3
# Measurement conditions: read-out: S1P3/GTPG EC50
pEC50: −log10 of the molar value. Structures can show the parent of a compound that is named as a salt.
Attribute: pEC50

Molecule	pEC50
COCc1cc(-c2nc(-c3cc(F)cc(CN(C)CCC(=O)O)c3)no2)ccc1-c1ccccc1C [Example 21, hydrochloride salt]	7.82
CCc1ccccc1-c1ccc(-c2nc(-c3ccc(C(=O)NCCC(=O)O)c(F)c3)no2)cc1COC	6.27
COCc1cc(-c2nc(-c3cccc(CN(C)CC(=O)O)c3)no2)ccc1-c1ccccc1Cl [Example 11, hydrochloride salt]	6.17
COCc1cc(-c2nc(-c3cccc(COCC(=O)O)c3)no2)ccc1N1CCCCC1C (stereo not shown) [Example 4, hydrochloride salt]	6.50
COCc1cc(-c2nc(-c3cccc(S(C)(=O)=O)c3)no2)ccc1N1CCCCC1C (stereo not shown) [Example 6, hydrochloride salt]	5.64
COCc1cc(-c2nc(-c3ccc(C(=O)NCCC(=O)O)c(Cl)c3)no2)ccc1-c1ccccc1C	6.26
CC1CCCCN1c1ccc(-c2nc(-c3cccc(CN(C)CC(=O)O)c3)no2)cc1C(F)(F)F (stereo not shown)	6.33

---

# Measurement target: S1P1 (Homo sapiens, UniProt P21453)
# Sequence (P21453 whole entry, species assumed): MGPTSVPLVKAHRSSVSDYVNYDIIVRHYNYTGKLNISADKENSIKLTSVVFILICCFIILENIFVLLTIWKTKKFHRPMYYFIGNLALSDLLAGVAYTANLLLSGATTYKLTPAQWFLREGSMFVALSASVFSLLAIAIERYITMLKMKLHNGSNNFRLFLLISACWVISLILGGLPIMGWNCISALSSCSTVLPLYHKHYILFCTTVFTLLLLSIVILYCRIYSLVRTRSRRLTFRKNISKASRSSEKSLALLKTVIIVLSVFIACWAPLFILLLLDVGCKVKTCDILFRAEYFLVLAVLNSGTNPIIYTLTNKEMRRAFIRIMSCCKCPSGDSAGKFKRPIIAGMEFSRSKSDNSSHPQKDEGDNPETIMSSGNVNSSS
# Assay notes: Receptor binding assay, [33P]sphingosine 1-phosphate competition, S1P1 membranes, WGA SPA beads
# Measurement conditions: 384 well-plate; read-out: S1P1 binding Ki (M) (384 well-plate)
Counter-ions that a name gives are not always drawn.

Compound	Measurement target	Ki (M)
Cc1ccccc1-c1ccc(-c2nc(-c3ccc(CNCCC(=O)O)cc3)no2)cc1C(F)(F)F	S1P1 (Homo sapiens, UniProt P21453)	3.77e-10
COCc1cc(-c2nc(-c3cccc(CN(C)CC(=O)O)c3)no2)ccc1-c1ccc(F)c(F)c1C [Example 42, hydrochloride salt]	S1P1 (Homo sapiens, UniProt P21453)	1.7e-09
COCc1cc(-c2nc(-c3cccc(CN(CCO)CCC(=O)O)c3)no2)ccc1-c1ccccc1C [Example 66, hydrochloride salt]	S1P1 (Homo sapiens, UniProt P21453)	2.42e-09
COCc1cc(-c2nc(-c3ccc(CN(C)CC(=O)O)cc3F)no2)ccc1-c1ccccc1C [Example 146, hydrochloride salt]	S1P1 (Homo sapiens, UniProt P21453)	9.36e-10
COCc1cc(-c2nc(-c3cccc(CC(=O)NCCC(=O)O)c3)no2)ccc1-c1ccccc1C	S1P1 (Homo sapiens, UniProt P21453)	6.6e-09
COCc1cc(-c2nc(-c3cc(F)c(CN(C)CC(=O)O)c(F)c3)no2)ccc1-c1ccccc1C [Example 151, hydrochloride salt]	S1P1 (Homo sapiens, UniProt P21453)	3.53e-09
COCc1cc(-c2nc(-c3ccc(CN(C)CC(=O)O)c(C)c3)no2)ccc1-c1ccccc1C	S1P1 (Homo sapiens, UniProt P21453)	2.31e-09
COCc1cc(-c2nc(-c3ccc(CNCC(=O)O)c(F)c3)no2)ccc1-c1ccccc1F [Example 82, hydrochloride salt]	S1P1 (Homo sapiens, UniProt P21453)	3.74e-10
COCc1cc(-c2nc(-c3ccc(CN(C)CC(=O)O)cc3)no2)ccc1-c1ccccc1Cl [Example 118, hydrochloride salt]	S1P1 (Homo sapiens, UniProt P21453)	1.1e-09
COCc1cc(-c2nc(-c3cccc(CCN(C)CC(=O)O)c3)no2)ccc1-c1ccccc1C	S1P1 (Homo sapiens, UniProt P21453)	4.97e-10
COCc1cc(-c2nc(-c3ccc(CN(C)CC(=O)O)cc3)no2)ccc1-c1ccccc1C [Example 51, hydrochloride salt]	S1P1 (Homo sapiens, UniProt P21453)	2.1e-09
COCc1cc(-c2nc(-c3ccc(CN(C)CC(=O)O)c(Cl)c3)no2)ccc1-c1ccccc1C	S1P1 (Homo sapiens, UniProt P21453)	1.45e-09
COCc1cc(-c2nc(-c3cc(CN(C)CC(=O)O)cc(F)c3F)no2)ccc1-c1ccccc1C [Example 126, hydrochloride salt]	S1P1 (Homo sapiens, UniProt P21453)	2.88e-09
COCc1cc(-c2nc(-c3ccc(CNCC(=O)O)cc3C)no2)ccc1-c1ccccc1C	S1P1 (Homo sapiens, UniProt P21453)	4.66e-10
COCc1cc(-c2nc(-c3cccc(CN(CCC(=O)O)C(C)C)c3)no2)ccc1-c1ccccc1C [Example 108, hydrochloride salt]	S1P1 (Homo sapiens, UniProt P21453)	5.06e-10
COCc1cc(-c2nc(-c3ccc(CN(C)CC(=O)O)c(F)c3)no2)ccc1-c1ccccc1F [Example 55, hydrochloride salt]	S1P1 (Homo sapiens, UniProt P21453)	5.23e-10
Cc1ccccc1-c1ccc(-c2nc(-c3cccc(COCC(=O)O)c3)no2)cc1C(F)(F)F	S1P1 (Homo sapiens, UniProt P21453)	1.97e-09
CCN(CC(=O)O)Cc1cccc(-c2noc(-c3ccc(-c4ccccc4C)c(COC)c3)n2)c1 [Example 78, hydrochloride salt]	S1P1 (Homo sapiens, UniProt P21453)	2.47e-09
COCc1cc(-c2nc(-c3ccc(CN(C)CC(=O)O)c(OC)c3)no2)ccc1-c1ccccc1C [Example 79, hydrochloride salt]	S1P1 (Homo sapiens, UniProt P21453)	5.33e-09
COCc1cc(-c2nc(-c3cc(F)cc(CN(C)CC(=O)O)c3)no2)ccc1-c1ccccc1C [Example 20, hydrochloride salt]	S1P1 (Homo sapiens, UniProt P21453)	1.33e-09
COCc1cc(-c2nc(-c3cccc(CN(C)CC(O)CO)c3)no2)ccc1-c1ccccc1C (stereo not shown)	S1P1 (Homo sapiens, UniProt P21453)	2.08e-09
Cc1ccccc1-c1ccc(-c2nc(-c3ccc(CNCCCC(=O)O)cc3)no2)cc1C(F)(F)F	S1P1 (Homo sapiens, UniProt P21453)	5.49e-10
Cc1cc(CNCC(=O)O)ccc1-c1noc(-c2ccc(-c3ccccc3C)c(C(F)(F)F)c2)n1	S1P1 (Homo sapiens, UniProt P21453)	4.79e-10
COCc1cc(-c2nc(-c3ccc(CNCC(=O)O)c(F)c3)no2)ccc1-c1ccccc1C [Example 83, hydrochloride salt]	S1P1 (Homo sapiens, UniProt P21453)	1.8e-10
COCc1cc(-c2nc(-c3ccc(CN(C)CC(=O)O)cc3)no2)ccc1-c1cc(F)ccc1C [Example 127, hydrochloride salt]	S1P1 (Homo sapiens, UniProt P21453)	1.12e-09
CCCN(CC(=O)O)Cc1cccc(-c2noc(-c3ccc(-c4ccccc4C)c(COC)c3)n2)c1 [Example 77, hydrochloride salt]	S1P1 (Homo sapiens, UniProt P21453)	9.83e-10
Cc1ccccc1-c1ccc(-c2nc(-c3ccc(CN(C)CC(=O)O)cc3)no2)cc1C [Example 130, hydrochloride salt]	S1P1 (Homo sapiens, UniProt P21453)	2.53e-09
COCc1cc(-c2nc(-c3ccc(CN(C)CC(=O)O)cc3)no2)ccc1-c1cccc(F)c1Cl [Example 122, hydrochloride salt]	S1P1 (Homo sapiens, UniProt P21453)	1.31e-09

---

# Measurement target: S1P3 (Homo sapiens)
# Assay notes: 35S-GTPγS binding on membranes of CHO cells expressing S1P3
# Measurement conditions: read-out: S1P3/GTPG EC50
Structures can show the parent of a compound that is named as a salt.
Quantity name: log10(EC50) (log10 of the value in µM)

Compound	log10(EC50)
COCc1cc(-c2nc(-c3cccc(COCCC(=O)O)c3)no2)ccc1-c1ccccc1C	0.30
COCc1cc(-c2nc(-c3cc(F)cc(CN(C)CC(=O)O)c3)no2)ccc1-c1ccccc1C [Example 20, hydrochloride salt]	-1.22
COCc1cc(-c2nc(-c3cccc(CN(C)CCC(=O)O)c3)no2)ccc1N1CCCCC1C (centres unmarked) [Example 2, hydrochloride salt]	-1.35
COCc1cc(-c2nc(-c3ccc(F)c(CN(C)CCC(=O)O)c3)no2)ccc1N1CCCCC1C (centres unmarked) [Example 19, dihydrochloride salt]	-1.46
COCc1cc(-c2nc(-c3ccc(OCCO)cc3)no2)ccc1-c1ccccc1C	-0.70
CC1CCCCN1c1ccc(-c2nc(-c3cccc(COCCC(=O)O)c3)no2)cc1C(F)(F)F (centres unmarked) [Example 12, hydrochloride salt]	-0.16
COCc1cc(-c2nc(-c3cccc(NCC(O)CO)c3)no2)ccc1-c1ccccc1C (centres unmarked)	-0.53
COCc1cc(-c2nc(-c3cccc(CC(=O)NCCNC(C)=O)c3)no2)ccc1-c1ccccc1C	-0.20
CCc1ccccc1-c1ccc(-c2nc(-c3cccc(CNCCC(=O)O)c3)no2)cc1COC [Example 18, hydrochloride salt]	-2.30
COCc1cc(-c2nc(-c3cccc(CN(C)CC(=O)O)c3)no2)ccc1-c1ccccc1F [Example 10, hydrochloride salt]	-0.89
CCC1CCCCN1c1ccc(-c2nc(-c3cccc(CN(C)CC(=O)O)c3)no2)cc1COC (centres unmarked) [Example 17, hydrochloride salt]	-0.59
